tested on: HCC1569; assay: cell number relative to DMSO (% of DMSO); higher = more cells (less growth inhibition / toxicity); conditions: concentration: 10 µM; 24 h;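 also: TDF denotes transformed human dermal fibroblasts of mesenchymal origin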
Label condition met when cell number is at or above 60; anything below gets condition not met.

// known answers, use as guide
[[record]]
molecule = "C[n+]1cc2c3c(ccc2c2ccc4cc5c(cc4c21)OCO5)OCO3.[Cl-] [Sanguinarine chloride]"
target_or_test_system = "HCC1569"
label_value = "condition not met"

[[record]]
molecule = "CC(C)c1cc(C(C)C)c(-c2csc(N(CCN(C)C)Cc3cccnc3)n2)c(C(C)C)c1"
target_or_test_system = "HCC1569"
label_value = "condition not met"


Ask | Quick check: does O=C(O)C=Cc1c[nH]c2ccccc12 [3-Beta-Indoleacrylic acid] have cell number greater than or equal to 60?
Reply | condition met

Ask | Quick check: does CCCCCCCCCCCCCC=CC(O)C(CO)NC(C)=O (stereo unspecified) [C2 Ceramide] have cell number greater than or equal to 60?
Reply | condition met

Ask | Quick check: does CCCCCCCCCCCCCCCCOCC(COP(=O)([O-])OCC[N+](C)(C)C)OC(=O)NC (stereo unspecified) have cell number greater than or equal to 60?
Reply | condition met

Ask | Quick check: does C=C1OC(CO)(n2cnc3c(N)ncnc32)C(O)C1O (stereo unspecified) [Decoyinine] have cell number greater than or equal to 60?
Reply | condition met

Ask | Quick check: does c1ccc(CNc2nc(NCc3ccccc3)c3ccccc3n2)cc1 [N~2~,N~4~-dibenzyl-2,4-quinazolinediamine] have cell number greater than or equal to 60?
Reply | condition not met

Ask | Quick check: does `COc1ccc2c(c1)c(C1=C(c3c[nH]c4ccccc34)C(=O)NC1=O)cn2CCCN(C)C` have cell number greater than or equal to 60?
Reply | condition met

Ask | Quick check: does `COc1cc(OC)c(C=C2C(=O)Nc3ccccc32)c(OC)c1` have cell number greater than or equal to 60?
Reply | condition met

Ask | Quick check: does Nc1cc(=O)nc(N)[nH]1 [2,6-Diamino-4-pyrimidinone] have cell number greater than or equal to 60?
Reply | condition met

Ask | Quick check: does COc1nc(C)nc(Cl)c1NC1=NCCN1.Cl [Moxonidine hydrochloride] have cell number greater than or equal to 60?
Reply | condition met

---

test system: TDF; assay: cell number relative to DMSO (% of DMSO); higher = more cells (less growth inhibition / toxicity); conditions: concentration: 10 µM; 24 h
Property label: cell number

These recorded examples may help you get a feel for the data.
[[record]]
compound = "Oc1ccc(-c2c(-c3ccccc3)nn3c(C(F)(F)F)cc(C(F)(F)F)nc23)cc1"
property_label = "cell number"
assay_result = 12.4

[[record]]
compound = "CCCCCC(O)CC(=O)CCc1ccc(O)c(OC)c1 (stereo not drawn) [Gingerol]"
property_label = "cell number"
assay_result = 97.2

[[record]]
compound = "O=C(O)CCCCC=CCC(O)C=CC=CC=CC(O)CCCC(=O)O (stereo not drawn) [20-Carboxy-leukotriene B4]"
property_label = "cell number"
assay_result = 103

[[record]]
compound = "CN1C2CCC1CC(OC(c1ccccc1)c1ccccc1)C2.CS(=O)(=O)O (stereo not drawn) [Benztropine mesylate]"
property_label = "cell number"
assay_result = 114

[[record]]
compound = "COc1cccc(/C=N/CC/N=C/c2cccc(OC)c2[O-])c1[O-].[Cl-].[Mn+2]"
property_label = "cell number"
assay_result = 98.1


cell number in this record for CCCCCCCCC=CCCCCCCCCCCC(=O)O [12(Z) Heneicosenoic acid] : 98

cell number in this record for CN1CCCC1c1cccnc1.Cc1ccc(C(=O)OC(C(=O)O)C(OC(=O)c2ccc(C)cc2)C(=O)O)cc1 (stereo not drawn) [(+)-Nicotine (+)-di-p-toluoyl tartrate] : 109

cell number in this record for COc1cc2ncn(-c3cc(OCc4ccc(S(C)(=O)=O)cc4)c(C(N)=O)s3)c2cc1OC [Polo-like Kinase Inhibitor I] : 96.2

cell number in this record for Cc1ccccc1C=CC1=NCCN1.O=C(O)C(=O)O [Metrazoline oxalate] : 81
